Population Mitotic Cells (%) values by entry
- Test system: Fibroblast
- assay: Multiplex assay against human fibroblast
- Type: toxicity, cell-based
- test_context: 24 h, 10 µM, compound concentration 10 uM, replicate 2
readout_name: Population Mitotic Cells (%)

{"compound_smiles": "O=c1nc2[nH]c3ccccc3nc-2c(=O)[nH]1", "readout_name": "Population Mitotic Cells (%)", "reported_measurement": 35}
{"compound_smiles": "S=C(NCCCc1c[nH]cn1)NCCCN(Cc1ccc(Cl)c(Cl)c1)c1ccc(Br)cn1", "readout_name": "Population Mitotic Cells (%)", "reported_measurement": 38}
{"compound_smiles": "COc1cc(OC2CCN(C(C)=O)CC2)ccc1C(=O)N1CCC(N2C(=O)OCc3ccccc32)CC1", "readout_name": "Population Mitotic Cells (%)", "reported_measurement": 56}
{"compound_smiles": "Cc1cc(=O)n(C)c2cc(N3C(=O)CC[C@H](NS(=O)(=O)CC(C)C)[C@H]3c3ccc(Cl)cc3)ccc12", "readout_name": "Population Mitotic Cells (%)", "reported_measurement": 57}
{"compound_smiles": "COc1ccc2[nH]c(I)c(CCNC(C)=O)c2c1", "readout_name": "Population Mitotic Cells (%)", "reported_measurement": 75}
{"compound_smiles": "Cc1cc(-c2ccc3c(c2)CC[C@H]3N2CC3(CCN(C(=O)Cc4cn5cc(C)sc5n4)CC3)C2)ncn1", "readout_name": "Population Mitotic Cells (%)", "reported_measurement": 46}
{"compound_smiles": "COc1ccc2c(c1OCc1ccccc1)C[C@@H](C(=O)O)N(C(=O)C(c1ccccc1)c1ccccc1)C2", "readout_name": "Population Mitotic Cells (%)", "reported_measurement": 41}
{"compound_smiles": "C=CCN1C[C@H](C(=O)N(CCCN(C)C)C(=O)NCC)C[C@@H]2c3cccc4[nH]cc(c34)C[C@H]21", "readout_name": "Population Mitotic Cells (%)", "reported_measurement": 56}
{"compound_smiles": "N[C@](CC1c2ccccc2Oc2ccccc21)(C(=O)O)[C@H]1C[C@@H]1C(=O)O", "readout_name": "Population Mitotic Cells (%)", "reported_measurement": 64}
{"compound_smiles": "O=c1ccc2ccc(OCCCCN3CCN(c4cccc5sccc45)CC3)cc2[nH]1", "readout_name": "Population Mitotic Cells (%)", "reported_measurement": 34}

----------
- Tested on: Fibroblast
- assay: Multiplex assay against human fibroblast
- Type: toxicity, cell-based
- test_context: 48 h, 1 µM, compound concentration 1 uM, replicate 1

{"compound": "C[C@@H]1CC(=O)Nc2cccc(-c3ccc4c(c3)c(-c3cnn(C)c3)nn4C)c2N1", "result_unit": "%", "Population Healthy Nuclei (%)": 60}
{"compound": "Nc1nc(CC(=O)Nc2ccc(CCNC[C@H](O)c3ccccc3)cc2)cs1", "result_unit": "%", "Population Healthy Nuclei (%)": 60}
{"compound": "O=C(O)CCC/C=C\\CC1C(O)CC(O)C1/C=C/C(O)COc1cccc(Cl)c1 (stereo not drawn)", "result_unit": "%", "Population Healthy Nuclei (%)": 59}
{"compound": "COCCCN1CCC(NC(=O)c2cc(Cl)c(N)c3c2OCC3)CC1 [PRUCALOPRIDE]", "result_unit": "%", "Population Healthy Nuclei (%)": 60}
{"compound": "CC(C)(O)C(=O)N1CCN(c2ccc(C(F)(F)F)c(C3=C(c4c[nH]c5ccccc45)C(=O)NC3=O)c2)CC1", "result_unit": "%", "Population Healthy Nuclei (%)": 61}
{"compound": "Cc1cc(-c2ccc3c(c2)CC[C@H]3N2CC3(CCN(C(=O)Cc4cn5cc(C)sc5n4)CC3)C2)ncn1", "result_unit": "%", "Population Healthy Nuclei (%)": 59}
{"compound": "CC(C)C[C@H](CO)Nc1nc(S[C@@H](C)c2ccccc2)nc2nc(N)sc12", "result_unit": "%", "Population Healthy Nuclei (%)": 60}
{"compound": "CN(C)C(=O)Cn1cc(-c2ccc(-c3nnc4ccccn34)cc2)cn1", "result_unit": "%", "Population Healthy Nuclei (%)": 61}
